These entries and their values trace back to ChEMBL document CHEMBL4765310.

System: SW-620
protocol text: Antiproliferative activity against human SW-620 cells assessed as inhibition of cell viability measured after 72 hrs by MTT assay
Type: functional, cell-based
conditions: SW-620, 72 h
Could you please report measured pIC50 for the items listed next?
One number for each entry, as −log10 of the molar value.

| smiles repr | pIC50 |
| --- | --- |
| COc1cc(Oc2cccc(Nc3ccccc3)c2)cc(OC)c1CNCc1ccc(Br)cc1 | 4.95 |
| COc1cc(Oc2cccc(Nc3ccccc3)c2)cc(OC)c1CNCCc1ccc(F)cc1 | 5.05 |

Can you give me pIC50 for all of these, one by one?
1. COc1cc(Oc2cccc(Nc3ccccc3)c2)cc(OC)c1CNCCc1ccc(Cl)cc1
2. COc1cc(Oc2cccc(Nc3ccccc3)c2)cc(OC)c1CNCc1ccc(O)cc1
3. O=c1[nH]cc(F)c(=O)[nH]1
4. COc1cc(Oc2cccc(Nc3ccccc3)c2)cc(OC)c1CNCc1ccc(C)cc1
5. COc1cccc(CCNCc2c(OC)cc(Oc3cccc(Nc4ccccc4)c3)cc2OC)c1

*A*
[5.00, 5.10, 4.82, 4.93, 5.41]

Can you give me pIC50 for all of these, one by one?
1. COc1ccc(CCNCc2ccc(Oc3cccc(Nc4ccccc4)c3)c(OC)c2)cc1
2. COc1cc(Oc2cccc(Nc3ccccc3)c2)cc(OC)c1CNCCc1ccc(C)cc1
3. COc1cc(Oc2cccc(Nc3ccccc3)c2)cc(OC)c1CNCCc1ccccc1
4. COc1ccc(CNCc2c(OC)cc(Oc3cccc(Nc4ccccc4)c3)cc2OC)cc1
5. COc1ccc(CCNCc2ccc(Oc3cccc(Nc4ccccc4)c3)cc2OC)cc1
6. COc1cc(Oc2cccc(Nc3ccccc3)c2)cc(OC)c1CNCc1ccccc1

*A*
1. 4.96
2. 5.24
3. 4.93
4. 5.16
5. 5.11
6. 5.13

Can you give me pIC50 for all of these, one by one?
1. COc1ccccc1CCNCc1c(OC)cc(Oc2cccc(Nc3ccccc3)c2)cc1OC
2. COc1cc(Oc2cccc(Nc3ccccc3)c2)cc(OC)c1CNCCNC(C)=O
3. COc1cc(Oc2cccc(Nc3ccccc3)c2)cc(OC)c1CN[C@H](C)c1ccccc1
4. COc1ccc(CCCNCc2c(OC)cc(Oc3cccc(Nc4ccccc4)c3)cc2OC)cc1

*A*
1: 5.44; 2: 4.92; 3: 4.73; 4: 5.19

====

Test system: HCT-15
protocol text: Antiproliferative activity against human HCT-15 cells assessed as inhibition of cell viability measured after 72 hrs by MTT assay
Type: functional, cell-based
conditions: HCT-15, 72 h
Could you please report measured pIC50 for the items listed next?
Answers are plain numbers, as −log10 of the molar value.

Some entries whose results are on file:
| smiles repr | quantity measured | result number |
| --- | --- | --- |
| COc1cc(Oc2cccc(Nc3ccccc3)c2)cc(OC)c1CNCc1ccc(C)cc1 | pIC50 | 5.27 |
| COc1cc(Oc2cccc(Nc3ccccc3)c2)cc(OC)c1CNCc1ccc(O)cc1 | pIC50 | 5.46 |
| COc1cc(Oc2cccc(Nc3ccccc3)c2)cc(OC)c1CN(CCO)CCO | pIC50 | 5.05 |
| COc1cc(Oc2cccc(Nc3ccccc3)c2)cc(OC)c1CNCc1ccc(Br)cc1 | pIC50 | 5.27 |

We next turn to a different compound, shown below.
*Q* Quick check: pIC50 of `COc1ccc(CCNCc2ccc(Oc3cccc(Nc4ccccc4)c3)cc2OC)cc1` ?
*A* 5.99
